# target: human PDE2A1 (Homo sapiens (Human))
# Sequence (O00408 other isoform, or with tags, fused parts or gaps): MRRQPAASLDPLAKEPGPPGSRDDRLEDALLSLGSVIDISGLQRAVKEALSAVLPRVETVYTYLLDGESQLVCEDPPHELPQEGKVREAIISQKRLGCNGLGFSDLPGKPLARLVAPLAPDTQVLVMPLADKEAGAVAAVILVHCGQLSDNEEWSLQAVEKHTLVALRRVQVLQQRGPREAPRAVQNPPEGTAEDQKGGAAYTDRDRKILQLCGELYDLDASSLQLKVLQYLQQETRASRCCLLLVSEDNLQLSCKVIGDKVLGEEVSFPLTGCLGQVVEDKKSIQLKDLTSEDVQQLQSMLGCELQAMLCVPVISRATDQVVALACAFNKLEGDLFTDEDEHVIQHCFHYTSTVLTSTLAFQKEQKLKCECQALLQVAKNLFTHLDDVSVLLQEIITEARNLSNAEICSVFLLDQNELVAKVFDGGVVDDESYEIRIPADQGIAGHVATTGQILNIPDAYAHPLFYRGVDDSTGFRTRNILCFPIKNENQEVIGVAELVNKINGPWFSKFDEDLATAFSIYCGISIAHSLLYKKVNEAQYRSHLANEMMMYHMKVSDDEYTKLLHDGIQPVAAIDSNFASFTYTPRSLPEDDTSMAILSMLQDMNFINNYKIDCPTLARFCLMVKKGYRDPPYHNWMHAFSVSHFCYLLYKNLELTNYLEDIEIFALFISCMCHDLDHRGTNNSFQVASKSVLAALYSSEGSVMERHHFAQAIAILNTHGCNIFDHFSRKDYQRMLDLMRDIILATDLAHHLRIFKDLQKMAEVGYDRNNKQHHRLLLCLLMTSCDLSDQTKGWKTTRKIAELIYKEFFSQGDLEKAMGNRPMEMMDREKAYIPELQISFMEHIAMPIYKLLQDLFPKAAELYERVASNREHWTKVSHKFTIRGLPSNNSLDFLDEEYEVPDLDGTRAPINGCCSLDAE
# assay: PDE2 IMAP FP inhibition assay, human PDE2A1 (selectivity panel format)
# Type: biochemical
# assay_conditions: Lab B; read-out: Human PDE2 Ki (nM) - Lab B
measured_parameter: Ki (nM)

Check out these entries, answers already filled in.
{"columns": ["compound", "Ki / nM"],
 "data": [
  ["CC(C)[C@@H](NC(=O)c1cc(=O)[nH]c(N2CC(F)C2)n1)c1ccc(OC(F)(F)F)c(F)c1", 3.9],
  ["CN(C)c1nc(C(=O)N[C@@H](c2ccc(C(F)(F)F)c(F)c2)C(C)(C)C)cc(=O)[nH]1", 0.2],
  ["CC(C)[C@@H](NC(=O)c1cc(=O)[nH]c(N2CCCC2)n1)c1ccc(SC(F)(F)F)cc1", 0.26]
]}

[a] CC(C)[C@@H](NC(=O)c1cc(=O)[nH]c(N(C)C)n1)c1ccc(SC(F)(F)F)cc1
[b] CNc1nc(C(=O)N[C@@H](c2ccc(C(F)(F)F)cc2)C(C)(C)C)cc(=O)[nH]1
[c] CC(C)(C)[C@@H](NC(=O)c1cc(=O)[nH]c(N2CC[C@H](F)C2)n1)c1ccc(C(F)(F)F)cc1
Sort the compounds on Ki; start with the lowest figure. Please list the labels in the order you were asked to rank them.
c, a, b
(c: 0.17 nM, a: 0.37 nM, b: 0.85 nM)

----------
# target: UniProt B3VTJ2
# assay: PDE2 fluorescence polarization (IMAP FP) inhibition assay, rhesus PDE2A3
# Format: biochemical, rhesus macaque
# assay_conditions: Lab B; read-out: Rhesus PDE2 Ki (nM) - Lab B
measured_parameter: Ki (nM)

Example results:
{"columns": ["molecule", "Ki (nM)"],
 "data": [
  ["CN(C)c1nc(C(=O)N[C@@H](c2ccc(C(F)(F)F)c(F)c2)C2CC2)cc(=O)[nH]1", 1.4],
  ["CCC(C)(NC(=O)c1cc(=O)[nH]c(N(C)C)n1)c1ccc(C(F)(F)F)cc1F (single isomer, unassigned)", 1.2],
  ["CC(C)[C@@H](NC(=O)c1cc(=O)[nH]c(N2CC[C@H](F)C2)n1)c1ccc(SC(F)(F)F)c(F)c1", 0.5],
  ["CC(C)[C@@H](NC(=O)c1cc(=O)[nH]c(N2CC(F)C2)n1)c1ccc(OC(F)(F)F)c(F)c1", 4],
  ["CC[C@@H](NC(=O)c1cc(=O)[nH]c(N(C)C)n1)c1ccc(OC(F)(F)F)c(F)c1", 1.1],
  ["C[C@@H](NC(=O)c1cc(=O)[nH]c(N(C)C)n1)c1ccc(C2CC2)c(F)c1", 0.87],
  ["C[C@@H](NC(=O)c1cc(=O)[nH]c(N(C)C)n1)c1ccc(SC(F)(F)F)cc1", 0.61],
  ["CN(C)c1nc(C(=O)N[C@@H](c2ccc(C3CC3)cc2)C2(C)CC2)cc(=O)[nH]1", 0.23]
]}

[I] CN(C)c1nc(C(=O)N[C@@H](c2ccc(OC(F)(F)F)c(F)c2)C(C)(C)C)cc(=O)[nH]1
[II] CN(C)c1nc(C(=O)N[C@@H](c2ccc(C(F)(F)F)cc2)C2(C)CC2)cc(=O)[nH]1
[III] CN(C)c1nc(C(=O)N[C@@H](c2ccc(SC(F)(F)F)cc2)C2CC2)cc(=O)[nH]1
[IV] CN(C)c1nc(C(=O)N[C@@H](c2ccc(OC(F)F)c(F)c2)C2(C)CC2)cc(=O)[nH]1
[V] CC(C)[C@@H](NC(=O)c1cc(=O)[nH]c(N2CC[C@@H](F)C2)n1)c1ccc(OC(F)(F)F)c(F)c1
Let's sort these by Ki, smallest first. Go ahead? // format: requested-order list of labels
I, II, III, IV, V

----------
Below: a set of entries, each annotated with reported Ki.
# target: Rhesus PDE2A3 (Macaca mulatta, UniProt B3VTJ2)
# Sequence (B3VTJ2 1-941): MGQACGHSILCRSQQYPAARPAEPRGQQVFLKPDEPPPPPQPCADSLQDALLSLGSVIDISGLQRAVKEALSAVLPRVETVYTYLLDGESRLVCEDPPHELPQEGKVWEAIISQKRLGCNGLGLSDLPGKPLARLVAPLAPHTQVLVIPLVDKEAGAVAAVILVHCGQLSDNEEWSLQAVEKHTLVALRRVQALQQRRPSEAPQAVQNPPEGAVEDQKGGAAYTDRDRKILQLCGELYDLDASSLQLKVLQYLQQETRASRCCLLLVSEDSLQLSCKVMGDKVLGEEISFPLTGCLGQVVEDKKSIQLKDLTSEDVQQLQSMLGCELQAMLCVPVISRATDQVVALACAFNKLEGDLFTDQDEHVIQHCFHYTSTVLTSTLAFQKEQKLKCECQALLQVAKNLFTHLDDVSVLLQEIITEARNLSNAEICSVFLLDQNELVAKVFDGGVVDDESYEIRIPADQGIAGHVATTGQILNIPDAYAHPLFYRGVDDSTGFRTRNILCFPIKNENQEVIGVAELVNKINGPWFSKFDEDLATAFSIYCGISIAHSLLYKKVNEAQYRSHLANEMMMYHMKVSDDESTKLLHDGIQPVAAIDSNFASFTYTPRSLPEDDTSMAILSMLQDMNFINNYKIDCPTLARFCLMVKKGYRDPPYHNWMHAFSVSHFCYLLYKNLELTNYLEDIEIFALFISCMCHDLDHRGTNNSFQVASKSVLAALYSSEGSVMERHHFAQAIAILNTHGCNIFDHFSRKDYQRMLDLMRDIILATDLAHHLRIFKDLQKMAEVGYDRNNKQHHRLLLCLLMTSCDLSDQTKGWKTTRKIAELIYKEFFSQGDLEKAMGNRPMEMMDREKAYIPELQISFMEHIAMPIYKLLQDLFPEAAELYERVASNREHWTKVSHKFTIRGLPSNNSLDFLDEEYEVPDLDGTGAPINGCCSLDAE
# assay: PDE2 fluorescence polarization (IMAP FP) inhibition assay, rhesus PDE2A3
# Type: biochemical, rhesus macaque
# assay_conditions: Rhesus PDE2 Ki (nM) - Lab B, Lab B
The reply should be a number in nM, with the unit left off.

// known answers, use as guide
{"columns": ["molecule", "unit", "Ki"],
 "data": [
  ["CC(C)C(C)(NC(=O)c1cc(=O)[nH]c(N(C)C)n1)c1ccc(S(F)(F)(F)(F)F)cc1 (single isomer, unassigned) [Example 173]", "nM", 6.6],
  ["CN(C)c1nc(C(=O)N[C@@H](c2ccc(C(F)(F)F)cc2)C(C)(C)C)cc(=O)[nH]1", "nM", 0.11],
  ["COCC1CCN(c2nc(C(=O)N[C@@H](c3ccc(C(F)(F)F)cc3)C(C)(C)C)cc(=O)[nH]2)C1 (stereo partly shown)", "nM", 0.41]
]}

Now look at this entry.
For this molecule ( CC(C)C(C)(NC(=O)c1cc(=O)[nH]c(N(C)C)n1)c1ccc(S(F)(F)(F)(F)F)cc1 (single isomer, unassigned) [Example 172] ), measured Ki is 154

----------
# target: Rhesus PDE2A3 (Macaca mulatta, UniProt B3VTJ2)
# assay: PDE2 fluorescence polarization (IMAP FP) inhibition assay, rhesus PDE2A3
# Assay type: biochemical, rhesus macaque
# assay_conditions: Lab B; read-out: Rhesus PDE2 Ki (nM) - Lab B
# Method: A Labcyte Echo 555 (Labcyte, Sunnyvale, Calif.) is used to dispense 200 nL from each well of the titration plate to the 384 well assay plate. […] The plate was incubated at room temperature for at least one hour prior to determining the fluorescence polarization (FP). The parallel and perpendicular fluorescence of each well of the plate was measured using a Tecan Genios Pro plate reader (Tecan, Switzerland) or Perkin Elmer EnVision™ plate reader (Waltham, Mass.). […]
measured_parameter: Ki (nM)

Sample records with Ki:
{"columns": ["compound", "Ki, nM"],
 "data": [
  ["CC(C)C(C)(NC(=O)c1cc(=O)[nH]c(N(C)C)n1)c1ccc(S(F)(F)(F)(F)F)cc1 (stereo not drawn)", 8.7],
  ["CC[C@@H](NC(=O)c1cc(=O)[nH]c(N(C)C)n1)c1ccc(SC(F)(F)F)cc1", 0.51],
  ["CN(C)c1nc(C(=O)NC(c2ccc(C3(C)CC3)c(F)c2)C(C)(C)C)cc(=O)[nH]1 (single isomer, unassigned)", 0.45],
  ["C[C@@H](NC(=O)c1cc(=O)[nH]c(N(C)C)n1)c1cc(F)c(C(F)(F)F)cc1F", 4.9],
  ["CN(C)c1nc(C(=O)N[C@@H](c2ccc(OC(F)(F)F)cc2)C(C)(C)C)cc(=O)[nH]1", 0.17]
]}

[P] CN(C)c1nc(C(=O)N[C@@H](c2ccc(C(F)(F)F)c(F)c2)C2(C)CC2)cc(=O)[nH]1
[Q] CN(C)c1nc(C(=O)N[C@@H](c2ccc(S(F)(F)(F)(F)F)cc2)C2(C)CC2)cc(=O)[nH]1
Looking at recorded values for Ki, does P or Q come in lower? Write the label of whichever entry you select.
Q
(Q: 0.28 nM, P: 0.45 nM)

[I] CN(C)c1nc(C(=O)N[C@@H](c2ccc(C(F)(F)F)cc2)C2CC2)cc(=O)[nH]1
[II] CN(C)c1nc(C(=O)N[C@@H](c2ccc(S(F)(F)(F)(F)F)cc2)C(C)(C)C)cc(=O)[nH]1
[III] CN(C)c1nc(C(=O)N[C@@H](c2ccc(C(F)(F)F)c(F)c2)C(C)(C)C)cc(=O)[nH]1
[IV] CN(C)c1nc(C(=O)N[C@@H](c2ccc(C(F)F)cc2)C2(C)CC2)cc(=O)[nH]1
Write the entries in order, lowest recorded Ki first. Put the labels in the requested order and write them down.
II, III, IV, I
(II: 0.11 nM, III: 0.18 nM, IV: 0.82 nM, I: 1.3 nM)

[a] CN(C)c1nc(C(=O)N[C@@H](c2ccc(C3CC3)c(F)c2)C(C)(C)C)cc(=O)[nH]1
[b] CN(C)c1nc(C(=O)N[C@@H](c2ccc(C(C)(C)C)cc2)C2(C)CC2)cc(=O)[nH]1
Select the item with the higher value of Ki from the options a and b listed. Please respond with the label that marks your chosen entry.
b

[I] CC(C)[C@@H](NC(=O)c1cc(=O)[nH]c(N(C)C)n1)c1ccc(C2CC2)c(F)c1
[II] CN(C)c1nc(C(=O)N[C@@H](c2ccc(SC(F)(F)F)cc2)C(C)(C)C)cc(=O)[nH]1
Would you mind telling me which has the lower recorded Ki between I and II ? Answer format: the label of the selected item.
II
(II: 0.12 nM, I: 0.31 nM)

----------
# target: P-glycoprotein (P-gp, rat Mdr1a) (Rattus norvegicus, UniProt Q6PSM0)
# Sequence (Q6PSM0 1-1272): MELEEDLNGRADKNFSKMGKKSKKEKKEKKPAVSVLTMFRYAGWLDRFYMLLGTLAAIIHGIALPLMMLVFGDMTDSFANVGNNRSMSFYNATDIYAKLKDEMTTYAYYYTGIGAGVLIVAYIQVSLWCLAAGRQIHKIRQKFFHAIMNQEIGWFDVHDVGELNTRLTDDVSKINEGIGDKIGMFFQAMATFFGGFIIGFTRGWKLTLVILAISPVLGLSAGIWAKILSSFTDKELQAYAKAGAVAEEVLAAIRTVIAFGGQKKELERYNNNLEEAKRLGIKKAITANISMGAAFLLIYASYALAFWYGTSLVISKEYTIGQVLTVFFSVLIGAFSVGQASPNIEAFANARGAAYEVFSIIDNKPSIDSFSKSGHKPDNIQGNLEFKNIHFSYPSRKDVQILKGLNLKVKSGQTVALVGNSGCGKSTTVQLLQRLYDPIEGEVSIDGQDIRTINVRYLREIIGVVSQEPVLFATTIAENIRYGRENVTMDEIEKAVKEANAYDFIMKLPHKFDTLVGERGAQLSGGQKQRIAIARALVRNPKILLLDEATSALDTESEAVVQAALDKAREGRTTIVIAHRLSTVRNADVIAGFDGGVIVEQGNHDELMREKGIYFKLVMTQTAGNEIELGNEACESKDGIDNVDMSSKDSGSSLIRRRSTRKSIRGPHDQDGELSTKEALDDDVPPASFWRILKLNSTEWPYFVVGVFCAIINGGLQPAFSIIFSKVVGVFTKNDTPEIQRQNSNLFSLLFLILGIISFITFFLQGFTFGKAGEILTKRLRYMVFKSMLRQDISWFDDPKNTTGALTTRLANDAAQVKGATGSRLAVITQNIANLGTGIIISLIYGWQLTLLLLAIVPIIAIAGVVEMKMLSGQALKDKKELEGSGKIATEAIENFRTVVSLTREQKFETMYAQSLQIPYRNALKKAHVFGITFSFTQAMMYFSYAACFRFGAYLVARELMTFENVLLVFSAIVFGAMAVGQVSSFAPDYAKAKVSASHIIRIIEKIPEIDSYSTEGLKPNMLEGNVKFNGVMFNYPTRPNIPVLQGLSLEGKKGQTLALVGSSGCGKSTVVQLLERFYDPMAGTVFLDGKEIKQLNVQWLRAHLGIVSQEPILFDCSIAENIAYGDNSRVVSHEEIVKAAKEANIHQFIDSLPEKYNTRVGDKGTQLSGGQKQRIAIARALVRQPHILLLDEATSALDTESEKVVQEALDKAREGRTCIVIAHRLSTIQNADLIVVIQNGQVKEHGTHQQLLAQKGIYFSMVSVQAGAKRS
# assay: P-gp transport, experimental BA/AB ratio, rat LLC-Mdr1a
# Type: in vitro ADME
# assay_conditions: LLC-PK1; rat LLC-Mdrla; 1 μM substrate concentration
measured_parameter: efflux ratio at 1 μM

In the examples that follow, each entry is paired with its recorded efflux ratio at 1 μM.
{"columns": ["molecule", "efflux ratio at 1 μM"],
 "data": [
  ["CN(C)c1nc(C(=O)N[C@@H](c2ccc(C(F)F)cc2)C2(C)CC2)cc(=O)[nH]1 [Example 61]", 12.3],
  ["COCC1CCN(c2nc(C(=O)N[C@@H](c3ccc(C(F)(F)F)cc3)C(C)(C)C)cc(=O)[nH]2)C1 (single isomer, unassigned) [Example 176]", 19.1]
]}

[A] CN(C)c1nc(C(=O)N[C@@H](c2ccc(SC(F)(F)F)cc2)C(C)(C)C)cc(=O)[nH]1 [Example 103]
[B] CC(C)[C@@H](NC(=O)c1cc(=O)[nH]c(N(C)C)n1)c1ccc(SC(F)(F)F)c(F)c1 [Example 150]
Recorded efflux ratio at 1 μM values differ for A and B ; which one is higher? // return label of chosen record
A
(A: 8.2, B: 4.4)

[A] CC(C)(C)[C@@H](NC(=O)c1cc(=O)[nH]c(N2CC[C@H](F)C2)n1)c1ccc(C(F)(F)F)cc1 [Example 169]
[B] CCCOc1nc(C(=O)N[C@H](C)c2ccc(C(F)(F)F)cc2)cc(=O)[nH]1 [Example 178]
[C] CN(C)c1nc(C(=O)N[C@@H](c2ccc(C(F)(F)F)c(F)c2)C2(C)CC2)cc(=O)[nH]1 [Example 42]
Given 3 molecules, produce a descending ranking by efflux ratio at 1 μM. The response must list the labels following the requested ordering.
A, C, B

[I] CC(C)[C@@H](NC(=O)c1cc(=O)[nH]c(N(C)C)n1)c1ccc(C2CC2)c(F)c1 [Example 41]
[II] C[C@@H](NC(=O)c1cc(=O)[nH]c(N2CCCCC2)n1)c1ccc(C(F)(F)F)cc1 [Example 131]
Kindly identify which of I and II has the larger recorded efflux ratio at 1 μM value. Pick one and reply with its label.
I

[A] CN(C)c1nc(C(=O)N[C@@H](c2ccc(S(F)(F)(F)(F)F)cc2)C2(C)CC2)cc(=O)[nH]1 [Example 57]
[B] CNc1nc(C(=O)N[C@H](C)c2ccc(C(F)(F)F)cc2)cc(=O)[nH]1 [Example 135]
Lab note: check whether A or B has the lower measured efflux ratio at 1 μM. Response format: the label of the selected entry.
A

[I] C[C@@H](NC(=O)c1cc(=O)[nH]c(N)n1)c1ccc(SC(F)(F)F)cc1 [Example 145]
[II] CN(C)c1nc(C(=O)NC(C)(C)c2ccc(C(F)(F)F)cc2Cl)cc(=O)[nH]1 [Example 80]
[III] CNc1nc(C(=O)N[C@H](C)c2ccc(SC(F)(F)F)cc2)cc(=O)[nH]1 [Example 144]
With regard to efflux ratio at 1 μM, arrange the entries in ascending order, please. Sort and list the labels as requested.
II, III, I
(II: 1.7, III: 14.2, I: 28.9)

FYI, the data here is from patent US10285989B2.
